# Tested on: house flies, Musca domestica
# Assay overview: Topical insecticidal activity against house flies (percent mortality 24 h after application, LD50)
# Assay type: in vivo
# Assay conditions: read-out: House fly LD50
Labelling: LD50 reported below 2 mg/kg becomes condition met; at or above becomes condition not met.

(Q) Strictly below 2 mg/kg: is that where LD50 of CCOC(=O)N(SNP(=O)(OC)SC)C(C)C (stereo not shown) [Compound 6] sits?
(A) condition met

(Q) Strictly below 2 mg/kg: is that where LD50 of CCN(SNP(=O)(OC)SC)C(=O)OC (stereo not shown) [Compound 1] sits?
(A) condition not met

(Q) Strictly below 2 mg/kg: is that where LD50 of COP(=O)(NSN(C(=O)OC(C)C)C(C)C)SC (stereo not shown) [Compound 7] sits?
(A) condition not met

(Q) Strictly below 2 mg/kg: is that where LD50 of CCCOC(=O)N(SNP(=O)(OC)SC)C(C)(C)C (stereo not shown) [Compound 10] sits?
(A) condition met

(Q) Strictly below 2 mg/kg: is that where LD50 of CCCOC(=O)N(SNP(=O)(OC)SC)C(C)C (stereo not shown) [Compound 8] sits?
(A) condition not met

(Q) Strictly below 2 mg/kg: is that where LD50 of CCCN(SNP(=O)(OC)SC)C(=O)OC (stereo not shown) [Compound 3] sits?
(A) condition met

(Q) Strictly below 2 mg/kg: is that where LD50 of CCCOC(=O)N(CCC)SNP(=O)(OC)SC (stereo not shown) [Compound 5] sits?
(A) condition met

(Q) Strictly below 2 mg/kg: is that where LD50 of CCOC(=O)N(SNP(=O)(OC)SC)C(C)(C)C (stereo not shown) [Compound 9] sits?
(A) condition not met

(Q) Strictly below 2 mg/kg: is that where LD50 of CCCCCCOC(=O)N(CC)SNP(=O)(OC)SC (stereo not shown) [Compound 2] sits?
(A) condition not met
